Value source: PubChem BioAssay AID504672

# Tested on: S. cerevisiae tim10 strain, luminescence counterscreen
# TEST_DESCRIPTION: TIM10 strain luminescence inhibitors – S. cerevisiae, uHTS hits, counter-screen for tim23-1 inhibitor project, dose response (AID 504672);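 further: yeast grew roughly 22 hours at 25 °C before the luminescence read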
PROPERTY_MEASURED: IC50

# COMPOUND, PROPERTY_MEASURED, RECORDED_VALUE
measured = [
    ("CC1(S(=O)(=O)O)CC(=O)c2ccccc2C1=O (configuration not stated)", "IC50", "7.14 µM"),
    ("Oc1ccc(/C=N/Nc2cccc(Cl)n2)c(O)c1", "IC50", "14.9 µM"),
    ("O=C(Nc1nsc(-c2ccccc2)n1)c1cccs1", "IC50", "6.65 µM"),
    ("Cc1cnc(NC(=O)c2sc(Nc3ccccc3)nc2N)o1", "IC50", "28 µM"),
    ("CC1=C(C)/C(=N/OC(=O)c2cccc([N+](=O)[O-])c2)C=CC1=O", "IC50", "5.21 µM"),
    ("N#C/C(=C/c1ccc(N2CCOCC2)o1)c1nc2ccccc2[nH]1", "IC50", "26.6 µM"),
    ("CC1CCc2c(sc3nc(C(C)(C)C)nc(N4CCN(C(=O)CCl)CC4)c23)C1 (configuration not stated)", "IC50", "23.3 µM"),
    ("c1ccc(-c2cc3ccccc3cn2)cc1", "IC50", "7.8 µM"),
    ("Cc1cc(C)nc(SCC(=O)c2cc3ccccc3oc2=O)n1", "IC50", "32.1 µM"),
    ("O=Cc1cnc2ccccc2c1-c1ccccc1", "IC50", "9.53 µM"),
    ("O=Cc1cn(CCOc2ccccc2F)c2ccccc12", "IC50", "22.3 µM"),
    ("CCOC(=O)c1c(C)oc2c(F)c(F)c(F)c(F)c2c1=O", "IC50", "26.8 µM"),
]
